meta.source: patent US20080027042A1

Molecular target: Aurora A (Homo sapiens, UniProt O14965)
Sequence (O14965 1-403): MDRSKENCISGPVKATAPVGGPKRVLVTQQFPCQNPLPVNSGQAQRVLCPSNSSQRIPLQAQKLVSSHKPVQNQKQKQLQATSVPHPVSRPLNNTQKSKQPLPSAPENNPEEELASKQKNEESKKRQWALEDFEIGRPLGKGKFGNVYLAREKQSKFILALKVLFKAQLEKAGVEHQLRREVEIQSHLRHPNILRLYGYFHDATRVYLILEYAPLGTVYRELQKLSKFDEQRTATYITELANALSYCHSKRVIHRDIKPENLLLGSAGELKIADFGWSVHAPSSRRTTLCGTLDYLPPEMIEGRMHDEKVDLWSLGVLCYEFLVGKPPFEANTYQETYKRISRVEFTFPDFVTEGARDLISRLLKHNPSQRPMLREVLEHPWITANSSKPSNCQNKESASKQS
Counter-ions that a name gives are not always drawn.
property_measured: IC50 (nM)
Kindly provide the numeric value in nM only, without the unit symbol.

# annotated cases, reported IC50 shown
{"columns": ["compound", "unit_label", "IC50"],
 "data": [
  ["O=C(c1cccc(Br)c1F)N1CCN(Cc2cccc(Nc3cc[nH]n3)n2)CC1 [Example 20, trifluoroacetate]", "nM", 1.1],
  ["O=C(c1ccccc1)N1CCCN(Cc2cccc(Nc3ncns3)n2)CC1 [Example 35]", "nM", 31],
  ["Cc1noc(-c2cc(CN3CCN(C(=O)c4cccc(Cl)c4F)CC3)nc(Nc3nccs3)c2)n1 [Example 110]", "nM", 0.59],
  ["O=C(c1cccc(Cl)c1F)N1CCN(Cc2cc(-c3ncn[nH]3)cc(Nc3nccs3)n2)CC1 [Example 108]", "nM", 0.59],
  ["O=C(c1cccc(Cl)c1Cl)N1CCN(Cc2cccc(Nc3nccs3)n2)CC1 [Example 6]", "nM", 0.5]
]}

Data request: Tell me measured IC50 for O=C(c1cccc(Cl)c1F)N1CCN(Cc2cc(N3CCCC3=O)cc(Nc3nccs3)n2)CC1 [Example 96] please.
Data returned: 0.57

Data request: Tell me measured IC50 for O=C(c1cnccn1)N1CCN(Cc2cccc(Nc3ncc(Cl)s3)n2)CC1 [Example 64] please.
Data returned: 110

Data request: Tell me measured IC50 for CN(C)Cc1cc(CN2CCN(C(=O)c3cccc(Cl)c3F)CC2)nc(Nc2nccs2)c1 [Example 94] please.
Data returned: 1.1

Data request: Tell me measured IC50 for Cc1cc(Nc2cncc(CN3CCN(C(=O)c4cccc(Cl)c4F)CC3)n2)n[nH]1 [Example 56] please.
Data returned: 2.1

Data request: Tell me measured IC50 for Cn1ccc(C(=O)N2CCN(Cc3cccc(Nc4ncc(Cl)s4)n3)CC2)n1 [Example 69] please.
Data returned: 32

Data request: Tell me measured IC50 for O=C(c1cccc(Cl)c1F)N1CCN(Cc2cc(Cn3cncn3)cc(Nc3nccs3)n2)CC1 [Example 92, trifluoroacetate] please.
Data returned: 0.93

Data request: Tell me measured IC50 for O=C(c1cccc(C(F)(F)F)c1F)N1C[C@@H]2C[C@H]1CN2Cc1cncc(Nc2cc[nH]n2)n1 [Example 47] please.
Data returned: 5.5

Data request: Tell me measured IC50 for O=C(c1cccc(C(F)F)c1F)N1CCN(Cc2cccc(Nc3nccs3)n2)CC1 [Example 15] please.
Data returned: 1.4

Data request: Tell me measured IC50 for O=C(c1cccc(C(F)(F)F)c1F)N1CCN(Cc2cccc(Nc3nccs3)n2)CC1 [Example 13, trifluoroacetate] please.
Data returned: 0.89

Data request: Tell me measured IC50 for O=C(c1cccc(C(F)(F)F)c1F)N1CCN(Cc2cccc(Nc3ncns3)n2)CC1 [Example 40] please.
Data returned: 0.99

Data request: Tell me measured IC50 for O=C(c1cccc(Cl)c1Cl)N1CCN(Cc2cccc(Nc3ncc(Cl)s3)n2)CC1 [Example 76] please.
Data returned: 0.44

Data request: Tell me measured IC50 for O=C(c1cc(CN2CCN(C(=O)c3cccc(Cl)c3F)CC2)nc(Nc2nccs2)c1)N1CCCC1 [Example 84, trifluoroacetate] please.
Data returned: 0.72

Data request: Tell me measured IC50 for O=C(c1cccc(Cl)c1F)N1C[C@@H]2C[C@H]1CN2Cc1cccc(Nc2nccs2)n1 [Example 10, trifluoroacetate] please.
Data returned: 0.49

Data request: Tell me measured IC50 for O=C(c1cccc(F)c1Cl)N1CCN(Cc2cccc(Nc3nccs3)n2)CC1 [Example 9] please.
Data returned: 1.3

Data request: Tell me measured IC50 for C[C@@H]1CN(Cc2cccc(Nc3ncns3)n2)CCN1C(=O)c1ccccc1 [Example 33, trifluoroacetate] please.
Data returned: 50

Data request: Tell me measured IC50 for O=C(c1cccc(Cl)c1F)N1CCN(Cc2cncc(Nc3nccs3)n2)CC1 [Example 58] please.
Data returned: 4.8

Data request: Tell me measured IC50 for O=C(c1cccc(Br)c1F)N1CCN(Cc2cccc(Nc3nccs3)n2)CC1 [Example 12] please.
Data returned: 0.52

Data request: Tell me measured IC50 for Cc1cc(Nc2cccc(CN3CCN(C(=O)c4cccc(Br)c4F)CC3)n2)n[nH]1 [Example 28] please.
Data returned: 0.52

Data request: Tell me measured IC50 for O=C(c1cccc(C(F)F)c1F)N1CCN(Cc2cccc(Nc3ncns3)n2)CC1 [Example 41, trifluoroacetate] please.
Data returned: 2.9

Data request: Tell me measured IC50 for O=C(c1cccc(Cl)c1F)N1CCCN(Cc2cccc(Nc3nccs3)n2)CC1 [Example 63] please.
Data returned: 1.3

Data request: Tell me measured IC50 for O=C(O)C(F)(F)F.O=C(c1cccc(C(F)(F)F)c1F)N1CCN(Cc2cccc(Nc3cc[nH]n3)n2)CC1 [Example 19, trifluoroacetate] please.
Data returned: 0.9
